Test: NCI Yeast Anticancer Drug Screen. Data for the rad50EPP+ strain (AID 151);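 note: 0% = growth of vehicle-treated control cultures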
Details: S. cerevisiae rad50 mutant strain, at 3.7 µM, stronger effect = higher value
About 79,000 compounds went through this panel and 15% of them were active in at least one assay; those are over-represented in the sample as a whole.
measure name: growth inhibition (%)
Entry rule: numbers only, all in %.

CNC(=O)OCC1C2=C(C(=O)C(C)=C(N)C2=O)N2CC3C(N3C)C12OC (stereo not given) | 10
Cc1ccc2c(c1N)C(=O)c1ccccc1C2=O | 45
O=P(Oc1ccc(Cl)cc1)(Oc1ccc(Cl)cc1)N1CC1 | -1
O=P(CCCCP(=O)(c1ccccc1)c1ccccc1)(c1ccccc1)c1ccccc1.[Cl][Sn]([Cl])([c]1ccccc1)[c]1ccccc1 | -1
Cc1nc2ccccc2cc1C[N+]12CN3CN(CN(C3)C1)C2 | 1

Record CC1=C(CO)C2=C(C)C3(CC3)[C@@](C)(O)C(=O)C2=C1 , field growth inhibition: 0

Record Cn1cc(NC(=O)c2cc(NC(=O)CN=C(N)N)cn2C)cc1C(=O)NCCC(=N)N , field growth inhibition: 1

Record O=C(/C=C(\c1ccccc1)N1CC1)c1ccccc1 , field growth inhibition: 17

Record CSC(=Nc1ccccc1)N(c1ccccc1)c1nc(=[N+](C)C)ss1 , field growth inhibition: -5

Record CCNCC(=O)O[C@]1(CC)C(=O)OCc2c1cc1n(c2=O)Cc2cc3ccccc3nc2-1 , field growth inhibition: 25
